- Test system: Listeria monocytogenes 10403S;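 also: End-point A600 read in BHI broth at 37 °C with 2% DMSO, inhibition computed as (1 − OD with compound plus ceftriaxone ÷ OD with ceftriaxone only) × 100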
- ASSAY_REMARKS: growth inhibition relative to ceftriaxone-alone control; higher = stronger potentiation of ceftriaxone growth inhibition
- ASSAY_CONTEXT: 10 µM; ceftriaxone 1 ug/ml; 12 h
READOUT_KIND: growth inhibition (%)
One number for each entry, in %.

Worked examples, 6 molecules total:
| CPD_SMILES | growth inhibition (%) |
| --- | --- |
| Cc1ccc(O)cc1Nc1ccnc2ccc(S(C)(=O)=O)cc12 | -11.4 |
| Cn1cc(C2=C(c3ccc(Cl)cc3Cl)C(=O)NC2=O)c2ccccc21 | 19.5 |
| CCn1c(-c2nonc2N)nc2c(C#CC(C)(C)O)nc(OC[C@@H](N)c3ccccc3)cc21 | 71.3 |
| Cc1ccc(NC(=O)c2ccc(CN3CCN(C)CC3)cc2)cc1Nc1nc(-c2cccnc2)cs1 | 36.7 |
| CN1CCN(Cc2ccc(-c3cc4ncnc(Nc5ccc(OCc6cccc(F)c6)c(Cl)c5)c4s3)o2)CC1 | 3 |
| C=CC(=O)Nc1ccc2ncnc(Nc3ccc(OCc4cccc(F)c4)c(Cl)c3)c2c1 | 17.5 |

Would you mind giving growth inhibition for every molecule in the list below?
1. COC(=O)Nc1nc2ccc(S(=O)(=O)c3ccc(NC(=O)Nc4cc(C(F)(F)F)ccc4F)cc3)cc2[nH]1
2. c1cc(-c2cnn3nc(N4CCOCC4)ccc23)nc(NC2CC2)n1
3. [O-][S+]1CCN(Cc2ccc(-c3ccc4ncnc(Nc5ccc(OCc6ccccc6)c(Cl)c5)c4c3)o2)CC1
4. COc1ccc2ncn(-c3cc(O[C@H](C)c4ccccc4Cl)c(C(N)=O)s3)c2c1
5. COc1cc2ncnc(Nc3ccc(O)c(Br)c3)c2cc1OC
6. COc1cc(C=NNc2ncnc3c2cnn3Cc2ccccc2)ccc1O

Result block:
[-13.3, -1.92, 2.22, 1.82, 13.4, -10.8]
